- Condition Details: buffer; pH 7.4; 200.0 µM
Measured Parameter: solubility kinetic (µg/mL)
A number alone suffices; assume µg/mL.

Molecule	solubility kinetic, µg/mL
Cc1ccc(C(=O)Nc2ccc3c(c2)C(=O)N(CC2CCCO2)C3=O)cc1 (configuration not stated)	1
Nc1c(C(=O)Nc2ccccc2F)sc2nc(-c3cccnc3)ccc12	4.2
COc1ccc(NC(=O)CCCSc2ccccc2)cc1	17.2
CC(=O)Oc1ccccc1/C=C/c1nc2ccccc2c(=O)o1	27.2

Entry CCCS(=O)(=O)N1CCN=C1SCc1cccc(F)c1 — recorded solubility kinetic = 39.6

Entry COc1ccc(NC(=O)c2cncn2-c2ccccc2)cc1 — recorded solubility kinetic = 42.6

Entry CCCCC(=O)Nc1ccc(C(=O)N(CC)c2ccccc2C)cc1 — recorded solubility kinetic = 7.9

###

- Condition Details: buffer; pH 7.4; 200.0 µM
Entries and their solubility kinetic
A number alone suffices; assume µg/mL.

Compound	Unit Symbol	Quantitative Readout
Cc1cc(C)c(OCC(=O)Nc2nc3ccccc3[nH]2)c(C)c1	µg/mL	0.3
Cc1cnc(C(=O)NCc2ccc(Cl)cc2Cl)cn1	µg/mL	7.7
Cc1ccc(-c2csc(NC(=O)c3ccc([N+](=O)[O-])o3)n2)cc1	µg/mL	1.2
CCc1c(C(=O)NCCc2cccc(C)c2)[nH]c(C)c1C(C)=O	µg/mL	5

Entry Cc1cccc2sc(NC(=O)C3CC3)nc12 — recorded solubility kinetic = 1.4

Entry COc1cccc(N2CCN(C(=S)Nc3ccc(C)cc3C)CC2)c1 — recorded solubility kinetic = 0.6

###

- Condition Details: buffer; pH 7.4; 200.0 µM
Entries and their solubility kinetic
A number alone suffices; assume µg/mL.

Use these answered entries as a reference point.
Molecule	Quantitative Readout
CCn1c(C)c(C(=O)NCCc2ccccc2)c2cc(OC)ccc21	23
COc1cccc(CNc2ccc(S(=O)(=O)N3CCCC3)cn2)c1	46
CN(C)C(=O)Oc1ccc(Br)c2ccccc12	35
Fc1ccccc1CNc1nc(-c2cccnc2)nc2ccccc12	9
COc1ccc2sc(NCc3ccccc3)nc2c1	2
O=C1ON=C(c2ccccc2)/C1=C\c1ccco1	35.2

Entry O=C(CNC(=O)c1ccc(N2CCCC2=O)cc1)Nc1ccc(F)c(F)c1F — recorded solubility kinetic = 5.5

Entry Cc1cc(F)c(F)c(C(=O)N2C(C)CCCC2C)c1Cl (configuration not stated) — recorded solubility kinetic = 14.5

###

Entries and their solubility kinetic
- Condition Details: buffer; pH 7.4; 200.0 µM
A number alone suffices; assume µg/mL.

Use these answered entries as a reference point.
Compound	Unit Symbol	solubility kinetic
COC(=O)c1cc(OC)nc(OC)c1	µg/mL	3
O=C(/C=C/c1ccc2c(c1)OCO2)NC1CCCC1	µg/mL	31.4

Entry N#Cc1c(N2CCCC(O)C2)nc(N)c2c(N)nc3c(c12)CC(=O)N3C12CC3CC(CC(C3)C1)C2 (stereo not given) — recorded solubility kinetic = 2.4

Entry CC(C)CCN(C(=S)Nc1cccc(F)c1)C1CCN(C(C)C)CC1 — recorded solubility kinetic = 48.2

Entry Cc1ccc(NC(=O)CSc2nc(N)cc(=O)[nH]2)cc1S(=O)(=O)N1CCCCCC1 — recorded solubility kinetic = 10.6

Entry O=[N+]([O-])C(/C=C(/Cl)[N+](=O)[O-])=C(N1CCCCC1)N1CCCCC1 — recorded solubility kinetic = 29.1

Entry O=S(=O)(CCc1ccncc1)Cc1ccc2c3c(cccc13)CC2 — recorded solubility kinetic = 11.8
